- ASSAY PROCEDURE: melting temperature; fluorescence melt of hairpins on a sequencing array, two-state fit, raised by 9.35 °C to match UV melts
- COND: sodium 0.088 M
# Tm binned as 0 (below 40 °C), 1 (40 °C to below 50 °C), 2 (50 °C or more)

Some solved entries appear below for comparison.
> print(dat)
                          sequence.input  label.class
1  GCAGGTGGAAACGCTTGC (((.(.(....).).)))            1
2          CAGTTGAAAAACTG (((((....)))))            1

Incoming: # bin lookup: classify CGAACGGAAACGTTCTCG ((((((....)))..))) by its Tm
Outgoing: 0

Incoming: # bin lookup: classify GACTTTGCGAAAGCAGTC (((..(((....)))))) by its Tm
Outgoing: 0

Incoming: # bin lookup: classify GCAGTTGAAAAACTGC ((((((....)))))) by its Tm
Outgoing: 2

Incoming: # bin lookup: classify TGAGCGAAAGCTCA (((((....))))) by its Tm
Outgoing: 2

Incoming: # bin lookup: classify GATCAAGCTGTTGATC ((((((....)))))) by its Tm
Outgoing: 1

Incoming: # bin lookup: classify CGGCGCGGAAACGCCCCG (((.(((....))).))) by its Tm
Outgoing: 2

---

- ASSAY PROCEDURE: folding enthalpy; higher = less favourable; fluorescence melt of hairpins on a sequencing array, two-state fit
- COND: sodium 0.088 M
READOUT KIND: folding enthalpy (kcal/mol)
Just the number in kcal/mol, nothing appended.

Use the examples below as a reference point.
> print(dat)
                          sequence.input      readout.kind  result
1  GCTGGGCGAAAGCGCCGC ((.(.((....)).).))  folding enthalpy   -18.2
2  GTAAGCGGAAACGCTTAC (((((((....)))))))  folding enthalpy   -36.1
3  GCCTTGCCGAAAGGCGGC (((..(((....))))))  folding enthalpy   -10.8
4                GCGTCGGACGC ((((...))))  folding enthalpy   -24.1
5      GATCCAGAGATGGATC ((((((....))))))  folding enthalpy   -34.5
6  GCGATCGAAAGATAGCGC ((((((....)))..)))  folding enthalpy   -30.8
7  GTGGCGGGAAACCGTCGC (.(.(((....))).).)  folding enthalpy   -24.9
8      GATCTCGCCCGAGATC ((((((....))))))  folding enthalpy   -39.2

Kindly consider the entry below.
Record summary for GTTCACGAAAGTGCAAC ((((((....))).))) : reported folding enthalpy = -16.8

---

Entries and their folding enthalpy values follow.
- ASSAY PROCEDURE: folding enthalpy; higher = less favourable; fluorescence melt of hairpins on a sequencing array, two-state fit
- COND: sodium 0.088 M
Just the number in kcal/mol, nothing appended.

> print(dat)
                          sequence.input      readout.kind  result
1    GGAAACGAAAGTTTTCC ((((((....))).)))  folding enthalpy   -20.4
2  GTTAAGGCGAAAGCCAAC (((..(((....))))))  folding enthalpy     -11
3              GCGAAATGTCGC ((((....))))  folding enthalpy   -18.6
4              GCGAGGTTTCGC ((((....))))  folding enthalpy     -16
5              GCGGTCGACCGC ((((....))))  folding enthalpy   -38.5
6  GTGAGTCGAAAGACACAC (((.(((....))).)))  folding enthalpy   -43.2
7  GCTCGCGGAAACGTGGGC ((.(.((....)).).))  folding enthalpy     -34
8  GGTCACGAAAGTGAAACC ((((((....)))..)))  folding enthalpy   -17.9

Record summary for GAACAACGAAAGTTTTTC (((.(((....))).))) : reported folding enthalpy = -17.8

Record summary for GTGATACGAAAGTAACAC (((.(((....))).))) : reported folding enthalpy = -34.1
